Values from patent US9340577B2

molecular target: HLA-A11 (A*1101) (Homo sapiens, UniProt P04439, A114D/D185E/E176A/F33Y/L180Q/S129P/T187R); test: biochemical; assay type: binding
No end group written: not given here.
y if IC50 is below 20 nM. n if not; exact matches included in n.

Worked examples, 5 sequences total:
Exercise: For GTVFGILIKR [Peptide 9012.0243] , is the recorded IC50 below the cut-off of 20 nM?
Solution: n

Exercise: For VVLLLVRYK [Peptide 1587.05] , is the recorded IC50 below the cut-off of 20 nM?
Solution: n

Exercise: For TVRHKKLMFK [Peptide 1556.79] , is the recorded IC50 below the cut-off of 20 nM?
Solution: n

Exercise: For AFRDLCIVYR [Peptide 78.0079] , is the recorded IC50 below the cut-off of 20 nM?
Solution: n

Exercise: For CTYSPALNR [Peptide 1556.42] , is the recorded IC50 below the cut-off of 20 nM?
Solution: y

More entries:
Exercise: For RLIDRIRER [Peptide 9017.0123] , is the recorded IC50 below the cut-off of 20 nM?
Solution: n

Exercise: For LTTNIHPAK [Peptide 88.0347] , is the recorded IC50 below the cut-off of 20 nM?
Solution: y
